# Measured target: Trypsin (Homo sapiens, UniProt P07477+P07478+P35030)
# Assay method text: Inhibition of trypsin (unknown origin) using benzoyl-L-arginine-p-nitroanilide hydrochloride as substrate preincubated at 45.5 uM for 5 mins before substrate addition measured after 30 mins
# Format: protein assay
Activity calls are given as the source filed them. The calls are words filed in the database; no cut-off is given here. *1 amine or outer side, *2 acyl side, *3 side chain or, on linkers, in order; H or OH if unused. Where a SMILES comes first, the peptide text is derived from it. Bridges are numbered along the chain shown (N, C = ends). [ ]: non-standard residue; d: D form. hTyr = N[C@@H](CCc1ccc(O)cc1)C(=O)O; NMeA = CN[C@@H](C)C(=O)O; CO = O=C([*:1])[*:2]

{"Compound": "C=C(C)C(O)CC/C(C)=C/CN(CCCC(C(=O)[O-])[N+](C)(C)C)C(=N)N (centres undefined)", "inhibition": "inactive"}
{"Compound": "NC(=O)[C@@H]1C[C@@H]2CC[C@H](O)C[C@@H]2N1C(=O)[C@@H](Cc1ccccc1)NC(=O)[C@H](O)Cc1ccc(O)cc1", "inhibition": "inactive"}
{"Compound": "NC(=O)[C@@H]1C[C@@H]2CC[C@H](O)C[C@@H]2N1C(=O)[C@@H](Cc1ccc(O)cc1)NC(=O)[C@H](O)Cc1ccc(O)cc1", "inhibition": "inactive"}
{"Compound": "CC[C@H](C)[C@@H]1NC(=O)[C@H](NC(=O)N[C@@H](CCCNC(=N)N)C(=O)O)CCCCNC(=O)[C@H](Cc2ccccc2)NC(=O)[C@H](C)N(C)C(=O)[C@H](CCc2ccc(O)cc2)NC1=O ({Arg-CO}-[dK]I[hTyr][NMeA]F; lactam 1-C)", "inhibition": "inactive"}
